# koff per entry
tested_target: T1, human PD-1 (soluble analyte in SPR) (human, UniProt Q15116 25-170, limits assumed)
T1 construct: also called CD279; PDCD1
T1 sequence (Q15116 25-170 limits assumed): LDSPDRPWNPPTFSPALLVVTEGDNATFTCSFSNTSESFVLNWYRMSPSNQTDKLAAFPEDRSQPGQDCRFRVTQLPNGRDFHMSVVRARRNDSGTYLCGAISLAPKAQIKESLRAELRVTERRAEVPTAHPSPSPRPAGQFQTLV
run_description: SPR (ProteOn XPR36), mAb captured on anti-human IgG Fc, PD-1 as analyte, 25 C
Write the value in s⁻¹ as a bare number.

Example results:
binder	measured
PD1B756 (antibody, human IgG1, kappa, V domains shown, Humanized PD1B512, IgG1; also called VH PD1H389; VL PD1L472) VH: QITLKESGPTLVKPTQTLTLTCTFSGFSLSTSGMGVSWIRQPPGKALEWLAHIYWDDDKRYSPSLKSRLTITKDTSKNQVVLTMTNMDPVDTGTYYCVRKGYYDYGYVMDYWGQGTLVTVSS VL: DIVMTQSPLSLPVTPGEPASISCRSSKSLLHSNGITYLNWYLQKPGQSPQLLIYQMSNLASGVPDRFSGSGSGTDFTLKISRVEAEDVGVYYCAQNLELPLTFGGGTKVEIKR	0.00214
PD1B505 (antibody, human IgG1, kappa, V domains shown, Parental mouse antibody cloned as chimeric human IgG1; Bin 1; also called VH PD1H93; VL PD1L30) VH: DVQLQESGPELKKPGETVKISCKASGYTFTDYSMHWVKQAPGKGLKWMGWINIETGEPTYADDFKGRFAFSLETSASTAYLQINNLKNEDTATYFCARDYYGTYFYAMDYWGQGTTLTVSS VL: QIVLTQSPAIMSASLGERVTMTCTASSSVSSSYLHWYQQKPGSSPKLWIYSTSNLASGVPARFSGSGSGTSYSLTISSMEAEDAATYYCHQYHRSPLTFGAGTKLELKR	0.00236
PD1B743 (antibody, human IgG1, kappa, V domains shown, Humanized PD1B505, IgG1; also called VH PD1H384; VL PD1L469) VH: QVQLVQSGSELKKPGASVKVSCKASGYTFTDYSMHWVRQAPGQGLEWMGWINIETGEPTYAQGFTGRFVFSLDTSVSTAYLQICSLKAEDTAVYFCARDYYGTYFYAMDYWGQGTLVTVSS VL: EIVLTQSPATLSLSPGERATLSCTASSSVSSSYLHWYQQKPGLAPRLLIYSTSNLASGIPDRFSGSGSGTDYTLTISRLEPEDFAVYYCHQYHRSPLTFGQGTKLEIKR	0.003
PD1B878 (antibody, human IgG1, kappa, V domains shown, C84S variant of PD1B743, IgG1; also called VH PD1H405; VL PD1L469) VH: QVQLVQSGSELKKPGASVKVSCKASGYTFTDYSMHWVRQAPGQGLEWMGWINIETGEPTYAQGFTGRFVFSLDTSVSTAYLQISSLKAEDTAVYFCARDYYGTYFYAMDYWGQGTLVTVSS VL: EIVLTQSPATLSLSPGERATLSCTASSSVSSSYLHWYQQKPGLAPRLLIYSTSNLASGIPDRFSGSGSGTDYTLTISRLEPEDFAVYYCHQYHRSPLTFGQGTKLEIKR	0.00351
PD1B750 (antibody, human IgG1, kappa, V domains shown, Humanized PD1B506, IgG1; also called VH PD1H388; VL PD1L470) VH: QVQLVQSGAEVKKPGASVKVSCKASGYTFTTYWMHWVRQAPGQGLEWMGEINPNNGGINYAQKFQGRVTLTVDKSISTAYMELSRLRSDDTAVYYCTIDYYDYGGYWGQGTLVTVSS VL: DIQMTQSPSSLSASVGDRVTITCKASQNVGTNVAWYQQKPEKAPKSLIYSASYRYSGVPSRFSGSGSGTDFTLTISSLQPEDFATYYCQQYNIYPYTFGQGTKLEIKR	0.00832
PD1B849 (antibody, human IgG1, kappa, V domains shown, N55E variant of PD1B750, IgG1; also called VH PD1H403; VL PD1L470) VH: QVQLVQSGAEVKKPGASVKVSCKASGYTFTTYWMHWVRQAPGQGLEWMGEINPNEGGINYAQKFQGRVTLTVDKSISTAYMELSRLRSDDTAVYYCTIDYYDYGGYWGQGTLVTVSS VL: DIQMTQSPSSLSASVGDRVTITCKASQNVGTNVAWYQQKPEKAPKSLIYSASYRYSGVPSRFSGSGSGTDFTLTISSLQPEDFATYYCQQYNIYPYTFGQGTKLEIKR	0.00883

Now examine the next entry.
Request: Quick check: koff of PD1B506 (antibody, human IgG1, kappa, V domains shown, Parental mouse antibody cloned as chimeric human IgG1; Bin 5; also called VH PD1H90; VL PD1L28) VH: QVQLQQPGAELVKPGASVKLSCKASGYTFTTYWMHWVKQRPGQGLEWIGEINPNNGGINYNEKFKKKATLTVDKSSSTAYMQLSSLTSEDSAVYYCTIDYYDYGGYWGQGTTLTVSS VL: DIVMTQSQKFMSTSVRDRVSVTCKASQNVGTNVAWYQQKPGQSPKALIYSASYRYSGVPDRFTGSGSGTDFTLTITNVQSEDLAEYFCQQYNIYPYTFGSGTKLEMKR ?
Response: 0.0102
